experiment: Quantitative High-Throughput drug screen in 47 multiple myeloma cell lines against the NCATS MIPE library collection: L363_DSMZ cell viability assay (AID 1918984); settings: L363 myeloma viability, CellTiter-Glo ATP luminescence, 48 h; series mostly up to 45.8 µM; note: nearly all actives have a fitted effect of over 40% in size
Records with an inconclusive call do not appear. Activity calls are given as the source filed them. Calls come from the whole dose curve; as a rule, active = well fitted cell-killing curve with a large enough effect; inconclusive = small, poorly fitted or top-dose-only effect, or effect the other way; inactive = no such curve, though single readings can be large or run the other way.
Give your call using only these classes: active, inactive

INPUT: Called result for NS(=O)(=O)c1cc2c(cc1Cl)NC(C(Cl)Cl)NS2(=O)=O (centres undefined)
OUTPUT: inactive

INPUT: Moving on to "CC(C)OC(=O)C(C(=O)OC(C)C)=C1SC=CS1"
OUTPUT: inactive

INPUT: Moving on to "CCN[C@H]1C[C@H](C)S(=O)(=O)c2sc(S(N)(=O)=O)cc21"
OUTPUT: inactive

INPUT: Moving on to "CCCc1nc(C)c2c(=O)[nH]c(-c3cc(S(=O)(=O)N4CCN(CC)CC4)ccc3OCC)nn12"
OUTPUT: active

INPUT: Moving on to "CCCCc1oc2ccc(NS(C)(=O)=O)cc2c1C(=O)c1ccc(OCCCN(CCCC)CCCC)cc1"
OUTPUT: active

INPUT: Moving on to "COc1cc([C@@H]2c3cc4c(cc3[C@H](O)[C@H]3COC(=O)[C@H]23)OCO4)cc(OC)c1OC"
OUTPUT: inactive

INPUT: Moving on to "C[C@@H](NCCCc1cccc(C(F)(F)F)c1)c1cccc2ccccc12"
OUTPUT: inactive

INPUT: Moving on to "CCn1cc(C(=O)O)c(=O)c2cc(F)c(N3CCNCC3)nc21"
OUTPUT: inactive

INPUT: Moving on to Cn1c(=O)c2c(ncn2CC(O)CO)n(C)c1=O (centres undefined)
OUTPUT: active
